Attribute: inhibition at 1 µM
# Tested on: Chikungunya virus (CHIKV)
# assay.notes: microbe, parasite or virus in culture
# Format: cell-based
# cond: Chikungunya virus, Vero, 48 h, read-out: Percent viral inhibition CHKV
Enter your answer as a number in %; do not include the unit.

Example results:
[
  {
    "molecule": "CC(=O)NCC1CCN(Cc2cc(Oc3ccc(NCC(C)(C)N)nc3)cc(-c3cc(Cl)cc(Cl)c3)c2)CC1 [Example 105]",
    "quantitative.readout": 0
  },
  {
    "molecule": "NS(=O)(=O)CC1CCN(Cc2cc(Oc3ccc(N4CCN(CCC(=O)O)CC4)nc3)nc(-c3cc(Cl)cc(Cl)c3)c2)CC1 [Example 38]",
    "quantitative.readout": 39.1
  },
  {
    "molecule": "CC(CCN1CCN(c2ncc(Oc3cc(CN4CCCC4)cc(-c4cc(Cl)cc(Cl)c4)n3)cn2)CC1)C(=O)O (centres unmarked) [Example 83]",
    "quantitative.readout": 33.4
  },
  {
    "molecule": "CNC(=O)OCC1CCN(Cc2cc(Oc3cnc(N4CCN(C5CC(C(=O)O)C5)CC4)nc3)nc(-c3cc(Cl)cc(Cl)c3)c2)CC1 (centres unmarked) [Example 211]",
    "quantitative.readout": 44.7
  },
  {
    "molecule": "CN1CCN(c2ncc(Oc3cc(CN4CCC(CCC(=O)O)CC4)cc(-c4cc(Cl)cc(Cl)c4)n3)cn2)CC1 [Example 130]",
    "quantitative.readout": 28.4
  }
]

CNC1CCN(c2ncc(Oc3cc(CN4CCC(CC(=O)O)CC4)cc(-c4cc(Cl)cc(Cl)c4)n3)cn2)C1 (centres unmarked) [Example 152] has a reported inhibition at 1 µM of 16.3

GET /value?item= O=C(O)CC1CCN(Cc2cc(Oc3cnc(N4CCNCC(O)C4)nc3)nc(-c3cc(Cl)cc(Cl)c3)c2)CC1 (centres unmarked) [Example 123] &field=inhibition at 1 µM returns 19.2

inhibition at 1 µM reading for CC(=O)NCC1CCN(Cc2cc(Oc3ccc(N4CCN(CCS(C)(=O)=O)CC4)nc3)cc(-c3cc(Cl)cc(Cl)c3)c2)CC1 [Example 293] : 0

Short answer for COC(=O)C(C)CCN1CCN(c2ncc(Oc3cc(CN4CCC(CNC(C)=O)CC4)cc(-c4cc(Cl)cc(Cl)c4)n3)cn2)CC1 (centres unmarked) [Example 368] : inhibition at 1 µM was 32.5

Data point: O=C(O)CC1CCN(Cc2cc(Oc3cnc(N4CCN(C5CC5)CC4)nc3)nc(-c3cc(Cl)cc(Cl)c3)c2)CC1 [Example 233] ; inhibition at 1 µM = 16.3

So for CN1CCN(c2cnc(Oc3cc(CN4CCC(CCO)CC4)cc(-c4cc(Cl)cc(Cl)c4)n3)cn2)CC1 [Example 350] , the logged inhibition at 1 µM turned out to be 0

COC(=O)NCC1CCN(Cc2cc(Oc3cnc(N4CCN(C)CC4)cn3)nc(-c3cc(Cl)cc(Cl)c3)c2)CC1 [Example 395] has a reported inhibition at 1 µM of 0

inhibition at 1 µM recorded for this molecule, COC(=O)NCC1CCN(Cc2cc(Oc3cnc(N4CCN(CCO)CC4)nc3)nc(-c3cc(Cl)cc(Cl)c3)c2)CC1 [Example 311] , is 8.41

Lab note: COC(=O)NCC1CCN(Cc2cc(Oc3cnc(N4CCN(CCC(=O)O)CC4)nc3)nc(-c3cc(Cl)cc(Cl)c3)c2)CC1 [Example 62] gave inhibition at 1 µM of 35.2
